# collection of Ki values tested on Cathepsin B (Homo sapiens)
readout.kind: Ki (nM)

1 = C[C@@H](OCc1ccccc1)[C@@H](C#N)NC(=O)[C@H](Cc1ccc(Br)cc1)NC(=O)c1ccc(-c2ccccc2)cc1
2 = C[C@@H](OCc1ccccc1)[C@@H](C#N)NC(=O)[C@H](Cc1cccc(Cl)c1)NC(=O)c1cccc(-c2cncnc2)c1
Returns: the argument ( 1 or 2 ) having the larger Ki. Bench note: the answer is the label of the chosen record.
1
(1: 158 nM, 2: 63.1 nM)

====

Biological target: Cathepsin B (Homo sapiens, UniProt P07858)
Experiment: Inhibition of human cathepsin B at pH 6 using Z-Phe-Arg-AMC fluorogenic peptide as substrate preincubated for 2 mins followed by substrate addition and measured for 5 mins by fluorescence assay
pIC50: −log10 of the molar value.
readout.kind: pIC50

Recorded pIC50 of "C[C@@H](OCc1ccccc1)[C@@H](C#N)NC(=O)[C@H](Cc1cccc(Cl)c1)NC(=O)c1ccc(-c2ccccc2)cc1" , please.
7.24

1 = C[C@@H](OCc1ccccc1)[C@@H](C#N)NC(=O)[C@H](Cc1cccc(Br)c1)NC(=O)c1ccc(-c2ccccc2)cc1
2 = C[C@@H](OCc1ccccc1)[C@@H](C#N)NC(=O)[C@H](Cc1cccc(Cl)c1)NC(=O)c1cccc(-c2cccnc2)c1
Please indicate which item has the smaller measured pIC50: 1 versus 2 Your choice should be expressed through its label.
1

====

pKi: −log10 of the molar value.
Record set of pKi for target or system Procathepsin L (Homo sapiens).
readout.kind: pKi

I = C[C@@H](OCc1ccccc1)[C@@H](C#N)NC(=O)[C@H](Cc1cccc(Cl)c1)NS(=O)(=O)c1ccc(-c2ccccc2)cc1
II = C[C@@H](OCc1ccccc1)[C@@H](C#N)NC(=O)[C@H](Cc1cccc(Br)c1)NC(=O)c1cccc(-c2cccnc2)c1
III = C[C@@H](OCc1ccccc1)[C@@H](C#N)NC(=O)[C@H](Cc1cccc(Cl)c1)NC(=O)c1cccc(-c2ccccc2)c1
Using the list above, order everything by rising pKi. // list labels; follow requested order
I, III, II
(I: 6.80, III: 7.30, II: 7.70)

====

Procathepsin L (Homo sapiens): reported pKi for various compounds.
Sequence (P07711 whole entry): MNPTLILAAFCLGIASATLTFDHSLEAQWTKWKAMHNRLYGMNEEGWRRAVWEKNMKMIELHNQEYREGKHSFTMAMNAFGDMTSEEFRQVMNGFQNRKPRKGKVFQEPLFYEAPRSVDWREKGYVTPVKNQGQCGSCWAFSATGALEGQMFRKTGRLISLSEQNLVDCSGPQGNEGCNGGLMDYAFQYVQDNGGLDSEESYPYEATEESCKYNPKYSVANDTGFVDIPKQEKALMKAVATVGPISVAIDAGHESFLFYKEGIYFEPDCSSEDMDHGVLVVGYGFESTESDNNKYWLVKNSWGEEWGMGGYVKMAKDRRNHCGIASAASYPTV
pKi: −log10 of the molar value.
readout.kind: pKi

I have this compound here, "C[C@@H](OCc1ccccc1)[C@@H](C#N)NC(=O)[C@H](Cc1cccc(Cl)c1)NC(=O)c1cccc(-c2cccnc2)c1" , and I need its recorded pKi.
9.00

So what's the measured pKi for this one? "C[C@@H](OCc1ccccc1)[C@@H](C#N)NC(=O)[C@H](Cc1cccc(Cl)c1)NC(=O)c1cccc(Br)c1"
9.20

Look at this compound and give its reported pKi. "C[C@@H](OCc1ccccc1)[C@@H](C#N)NC(=O)[C@H](Cc1cccc(Br)c1)NC(=O)c1cc(C(C)(C)C)nn1C"
9.30

Looking for the measured pKi of "C[C@@H](OCc1ccccc1)[C@@H](C#N)NC(=O)[C@H](Cc1cccc(Cl)c1)NC(=O)c1ccc(-c2cncnc2)cc1" , can you help?
7.80

I = C[C@@H](OCc1ccccc1)[C@@H](C#N)NC(=O)[C@H](Cc1cccc(Br)c1)NC(=O)c1ccc(-c2cncnc2)cc1
II = C[C@@H](OCc1ccccc1)[C@@H](C#N)NC(=O)[C@H](Cc1c[nH]c2ccccc12)NC(=O)c1ccc(-c2ccccc2)cc1
Just curious, which one has the larger pKi reading, I or II ? Mark your answer with the label of the selected entry.
I
(I: 7.70, II: 6.10)
